Test system: MERS WT
Experimental details: microbe, parasite or virus in culture
Type: cell-based
Study conditions: Middle East respiratory syndrome-related coronavirus, read-out: MERS WT (μM)
Quick reference for IC50 among some compounds
Could you give me the number in µM? Just the number is fine.

Answered cases to consult:
| Compound | IC50, µM |
| --- | --- |
| CC(NC(=O)C(Cc1ccccc1)NC(=O)Cc1ccccc1)C(=O)C(=O)NC(CC1CCCCC1)C(=O)NC(Cc1ccc(-c2ccccc2)cc1)C(N)=O (stereo not drawn) | 1.1 |
| CC(NC(=O)C(Cc1ccccc1)NC(=O)Cc1ccccc1)C(=O)C(=O)NC(Cc1ccccc1F)C(=O)NC(Cc1ccc(-c2ccccc2)cc1)C(N)=O (stereo not drawn) | 0.99 |

# input for lookup
stdin: Reported IC50 for CC(NC(=O)C(Cc1ccccc1)NC(=O)Cc1ccccc1)C(=O)C(=O)NC(CC1CC1)C(=O)NC(Cc1ccc(-c2ccccc2)cc1)C(N)=O (stereo not drawn) : what is it?
stdout: 1.81
